Could you please report measured EC50 for the items listed next?
MEASURED_TARGET: Wnt-responsive promoter (TCF/LEF)
EXPERIMENTAL_PROTOCOL: Wnt-dependent luciferase reporter assay
Where a SMILES comes first, the peptide text is derived from it. The star is where a group is joined. Bn = c1ccc(C*)cc1

See these solved cases before continuing.
Problem: Using the record for CC[C@H](C)[C@H](NC(=O)[C@H](Cc1c[nH]c2ccccc12)NC(=O)[C@@H](N)CCSC)C(=O)N[C@@H](CC(C)C)C(=O)N[C@H](C(=O)N[C@@H](CS)C(=O)NC(C)(Cc1ccccc1)C(=O)N[C@@H](Cc1c[nH]c2ccccc12)C(=O)NCC(=O)O)[C@@H](C)CC (stereo partly drawn) [compound 121] (HELM PEPTIDE1{M.W.I.L.I.C.[CC(Cc1ccccc1)(N[*:1])C(=O)[*:2]].W.G}$$$$V2.0) , report its EC50.
Result: < 7.5 µM

Problem: What EC50 value was documented for this molecule, CC[C@H](C)[C@H](NC(=O)[C@H](CC(C)C)NC(=O)[C@H](Cc1ccccc1)NC(=O)[C@H](Cc1c[nH]c2ccccc12)NC(=O)[C@H](CCSC)NC(=O)[C@H](CCCNC(=N)N)NC(=O)[C@H](CO)NC(=O)[C@@H](N)CCSC)C(=O)N[C@@H](CO)C(=O)N[C@@H](COCc1ccccc1)C(=O)N[C@@H](Cc1c[nH]c2ccccc12)C(=O)O [compound 106] (H-MSRMWFLISS(Bn)W-OH) ?
Result: 15 to 22.5 µM

---
Problem: I'd like to know its EC50. The molecule in question is CC[C@H](C)[C@@H]1NC(=O)[C@H](CC(C)C)NC(=O)[C@H](CC(C)C)NC(=O)[C@H](Cc2c[nH]c3ccccc23)NC(=O)[C@H](CCSC)NC(=O)[C@H](CCCNC(=N)N)NC(=O)[C@H](CO)NC(=O)[C@H](CCSC)NC(=O)[C@@H](N)CCCCNC(=O)CNC(=O)[C@H](Cc2c[nH]c3ccccc23)NC(=O)[C@H](Cc2ccccc2)NC(=O)[C@H](CO)NC1=O [compound 25] (HELM PEPTIDE1{K.M.S.R.M.W.L.L.I.S.F.W.G}$PEPTIDE1,PEPTIDE1,1:R3-13:R2$$$V2.0; bridges inferred)
Result: 7.5 to 15 µM

---

MEASURED_TARGET: β-catenin (Homo sapiens, UniProt P35222)
Sequence (P35222 1-781): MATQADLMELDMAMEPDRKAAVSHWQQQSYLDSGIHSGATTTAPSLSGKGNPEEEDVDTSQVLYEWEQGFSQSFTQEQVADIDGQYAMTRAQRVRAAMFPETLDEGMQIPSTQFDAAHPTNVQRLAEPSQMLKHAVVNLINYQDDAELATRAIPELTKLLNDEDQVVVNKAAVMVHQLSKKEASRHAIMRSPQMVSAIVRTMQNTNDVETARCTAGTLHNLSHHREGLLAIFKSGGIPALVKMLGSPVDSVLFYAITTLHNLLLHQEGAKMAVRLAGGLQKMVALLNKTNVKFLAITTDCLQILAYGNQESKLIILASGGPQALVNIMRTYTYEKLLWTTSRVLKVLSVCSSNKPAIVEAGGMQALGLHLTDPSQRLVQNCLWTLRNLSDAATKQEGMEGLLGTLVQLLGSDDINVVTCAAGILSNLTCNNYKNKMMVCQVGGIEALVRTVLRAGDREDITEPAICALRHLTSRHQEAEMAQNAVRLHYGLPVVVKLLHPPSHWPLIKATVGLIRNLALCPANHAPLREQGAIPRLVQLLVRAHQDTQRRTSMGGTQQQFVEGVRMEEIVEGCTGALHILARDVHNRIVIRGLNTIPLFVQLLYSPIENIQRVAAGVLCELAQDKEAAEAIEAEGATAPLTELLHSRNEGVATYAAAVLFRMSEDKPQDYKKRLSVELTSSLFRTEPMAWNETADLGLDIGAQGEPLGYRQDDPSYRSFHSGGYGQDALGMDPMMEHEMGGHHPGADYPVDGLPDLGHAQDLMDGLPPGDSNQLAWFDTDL
EXPERIMENTAL_PROTOCOL: KD50 measurement using competitive fluorescence polarization (FP) with labelled TCF4
Format: binding
CONDITION_LABEL: fluorescence polarization, β-catenin; read-out: β-Cat FP KD
Where a SMILES comes first, the peptide text is derived from it.
ASSAY_ENDPOINT: Kd

Problem: I have this compound here, CC[C@H](C)[C@H](NC(=O)[C@H](CC(C)C)NC(=O)[C@H](Cc1ccccc1)NC(=O)[C@H](Cc1c[nH]c2ccccc12)NC(=O)[C@@H](NC(=O)[C@H](CCCNC(=N)N)NC(=O)[C@H](CO)NC(=O)[C@@H](N)CCSC)[C@@H](C)O)C(=O)N[C@@H](CO)C(=O)N[C@@H](Cc1ccccc1)C(=O)N[C@@H](Cc1c[nH]c2ccccc12)C(=O)NCC(=O)O [compound 48] (H-MSRTWFLISFWG-OH) , and I need its recorded Kd.
Result: > 30 µM

Now for the compound whose Kd we want.
Problem: For CC[C@H](C)[C@H](NC(=O)[C@@H]1CCCN1C(=O)[C@H](Cc1ccccc1)NC(=O)[C@H](Cc1c[nH]c2ccccc12)NC(=O)[C@H](CCSC)NC(=O)[C@H](CCCNC(=N)N)NC(=O)[C@H](CO)NC(=O)[C@@H](N)CCSC)C(=O)N[C@@H](CO)C(=O)N[C@@H](Cc1ccccc1)C(=O)N[C@@H](Cc1c[nH]c2ccccc12)C(=O)NCC(=O)O [compound 65] (H-MSRMWFPISFWG-OH) , what is its reported Kd?
Result: 1 to 10 µM

---

MEASURED_TARGET: β-catenin (Homo sapiens)
Sequence (P35222 1-781): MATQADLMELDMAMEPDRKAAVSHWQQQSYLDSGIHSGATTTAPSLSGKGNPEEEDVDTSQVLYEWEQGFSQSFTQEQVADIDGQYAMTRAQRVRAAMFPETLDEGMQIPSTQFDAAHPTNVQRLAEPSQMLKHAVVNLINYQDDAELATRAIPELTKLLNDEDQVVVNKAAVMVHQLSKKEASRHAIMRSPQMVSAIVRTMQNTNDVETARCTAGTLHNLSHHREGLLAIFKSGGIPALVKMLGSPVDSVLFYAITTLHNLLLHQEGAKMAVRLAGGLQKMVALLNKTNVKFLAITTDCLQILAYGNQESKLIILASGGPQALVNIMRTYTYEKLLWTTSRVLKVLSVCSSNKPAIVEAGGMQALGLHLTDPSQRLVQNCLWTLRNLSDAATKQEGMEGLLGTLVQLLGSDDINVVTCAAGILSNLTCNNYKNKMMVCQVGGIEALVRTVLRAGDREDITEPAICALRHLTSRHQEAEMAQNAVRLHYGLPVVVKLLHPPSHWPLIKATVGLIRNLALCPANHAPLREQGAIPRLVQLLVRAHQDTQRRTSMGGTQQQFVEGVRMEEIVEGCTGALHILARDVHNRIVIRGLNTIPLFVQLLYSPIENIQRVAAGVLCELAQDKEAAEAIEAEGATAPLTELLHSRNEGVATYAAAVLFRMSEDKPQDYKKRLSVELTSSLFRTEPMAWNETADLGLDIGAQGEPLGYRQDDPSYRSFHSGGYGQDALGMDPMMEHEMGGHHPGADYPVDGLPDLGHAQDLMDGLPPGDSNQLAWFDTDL
EXPERIMENTAL_PROTOCOL: KD50 measurement using competitive fluorescence polarization (FP) with labelled TCF4
Assay type: binding
CONDITION_LABEL: fluorescence polarization, β-catenin
Where a SMILES comes first, the peptide text is derived from it.
For each record, write down the corresponding β-Cat FP Hill slope.
Answers are plain numbers.

These recorded examples may help you get a feel for the data.
Problem: Give the measured β-Cat FP Hill slope of CC[C@H](C)[C@H](NC(=O)[C@H](CC(C)C)NC(=O)[C@H](Cc1ccccc1)NC(=O)[C@H](Cc1c[nH]c2ccccc12)NC(=O)[C@H](CCSC)NC(C)=O)C(=O)N[C@@H](CS)C(=O)N[C@@H](Cc1ccccc1)C(=O)N[C@@H](Cc1c[nH]c2ccccc12)C(=O)NCCCC(=O)O [compound 197] (HELM PEPTIDE1{[ac].M.W.F.L.I.C.F.W.[O=C(O)CCCN[*:1]]}$$$$V2.0) .
Result: 1.52

Problem: # query: β-Cat FP Hill slope of entry CC[C@H](C)[C@@H]1NC(=O)[C@H](CC(C)C)NC(=O)[C@H](Cc2ccc(O)cc2)NC(=O)[C@H](Cc2c[nH]c3ccccc23)NC(=O)[C@H](CCSC)NC(=O)[C@H](CCCNC(=N)N)NC(=O)[C@H](CO)NC(=O)[C@@H](N)CCCNC(=O)[C@H](Cc2c[nH]c3ccccc23)NC(=O)[C@H](Cc2ccccc2)NC(=O)[C@H](CO)NC1=O [compound 277] (HELM PEPTIDE1{[Orn].S.R.M.W.Y.L.I.S.F.W}$PEPTIDE1,PEPTIDE1,1:R3-11:R2$$$V2.0)
Result: 0.7

Problem: Which β-Cat FP Hill slope is listed for CC[C@H](C)[C@@H]1NC(=O)[C@H](CC(C)C)NC(=O)[C@H](Cc2ccccc2)NC(=O)[C@H](Cc2c[nH]c3ccccc23)NC(=O)[C@@H](N)CCCCNC(=O)CCNC(=O)C[C@@H](C(=O)O)NC(=O)[C@H](Cc2c[nH]c3ccccc23)NC(=O)[C@H](C)NC(=O)[C@H](CS)NC1=O [compound 260] (HELM PEPTIDE1{K.W.F.L.I.C.A.W.[O=C(O)[C@H](CC(=O)[*:2])N[*:1]].[bAla]}$PEPTIDE1,PEPTIDE1,1:R3-10:R2$$$V2.0) ?
Result: 1.53

Problem: # lookup: β-Cat FP Hill slope of CC[C@H](C)[C@H](NC(=O)[C@H](CC(C)C)NC(=O)[C@H](Cc1ccccc1)NC(=O)[C@H](Cc1c[nH]c2ccccc12)NC(=O)[C@@H](N)CCSC)C(=O)N[C@@H](CO)C(=O)N[C@@H](Cc1ccccc1)C(=O)N[C@@H](Cc1c[nH]c2ccccc12)C(=O)NCC(N)=O [compound 108] (H-MWFLISFWG-NH2)
Result: 0.7

Okay, here is my list. What is β-Cat FP Hill slope for each of these?
1. CC[C@H](C)[C@H](NC(=O)[C@H](CC(C)C)NC(=O)[C@@H](NC(=O)[C@H](Cc1c[nH]c2ccccc12)NC(=O)[C@@H](N)CCSC)[C@@H](C)CC)C(=O)N[C@@H](CO)C(=O)N[C@@H](CO)C(=O)N[C@@H](Cc1c[nH]c2ccccc12)C(=O)NCC(=O)O [compound 129] (H-MWILISSWG-OH)
2. CC[C@H](C)[C@H](NC(=O)[C@H](CC(C)C)NC(=O)[C@H](Cc1ccccc1)NC(=O)[C@H](Cc1c[nH]c2ccccc12)NC(=O)[C@@H](N)CCSC)C(=O)N[C@@H](CS)C(=O)N[C@@H](Cc1ccccc1)C(=O)N[C@@H](Cc1c[nH]c2ccccc12)C(=O)NCC(=O)O [compound 42] (H-MWFLICFWG-OH)

Result:
0.87
0.96
